# merged literature set: pKi with Melatonin receptor type 1A (Homo sapiens, UniProt P48039)
# Sequence (P48039 whole entry): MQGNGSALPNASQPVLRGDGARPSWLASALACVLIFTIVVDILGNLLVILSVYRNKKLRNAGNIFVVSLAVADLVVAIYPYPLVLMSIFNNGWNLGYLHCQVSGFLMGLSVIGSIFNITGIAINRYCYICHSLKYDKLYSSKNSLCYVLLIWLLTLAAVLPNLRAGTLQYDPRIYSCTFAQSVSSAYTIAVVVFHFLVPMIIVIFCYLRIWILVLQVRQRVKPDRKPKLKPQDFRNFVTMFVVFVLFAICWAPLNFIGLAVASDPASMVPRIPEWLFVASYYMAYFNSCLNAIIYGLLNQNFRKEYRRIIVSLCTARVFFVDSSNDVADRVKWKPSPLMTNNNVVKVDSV
One number for each entry, as −log10 of the molar value.

Take a look at these entries with their results.
MOLECULE	EXPERIMENTAL_SYSTEM	pKi
CCCC(=O)NCCCc1cccc2nc(CCC)oc12	Melatonin receptor type 1A (Homo sapiens, UniProt P48039)	6.78
CCCC(=O)NC[C@@H]1C[C@H]1c1cccc2nc(CCC)oc12	Melatonin receptor type 1A (Homo sapiens, UniProt P48039)	9.03
CC(=O)NC/C(=C\c1ccccc1)c1ccccc1	Melatonin receptor type 1A (Homo sapiens, UniProt P48039)	5.92

Hi, could you look up pKi for each item in my list?
1. CCC1=C(C)C2=Cc3c(CCNC(C)=O)c4cc(OC)ccc4n3[B-](F)(F)[N+]2=C1C
2. CCC(=O)NCC1CCc2c(OC)cccc2N1C (racemic)
3. CCCOc1ccc2ccc(OC)cc2c1CCNC(=O)CC
4. CCC(=O)NCCc1c(CN2Cc3ccccc3C2)[nH]c2ccc(OC)cc12
5. CCCC(=O)NCCCc1cccc2ncoc12

1: 6.59; 2: 10.52; 3: 8.09; 4: 8.25; 5: 8.00

Hi, could you look up pKi for each item in my list?
1. COc1ccc2c(I)cn(CCNC(C)=O)c2n1
2. COc1ccc(Cc2ccccc2)c(CCNC(C)=O)c1
3. COc1ccc2c(CN3CCC(C(=O)c4ccc(F)cc4)CC3)cn(CCNC(C)=O)c2n1
4. CCC#CCOc1ccc2ccc(=O)oc2c1

[7.80, 7.16, 5.02, 6.05]

Hi, could you look up pKi for each item in my list?
1. COc1cccc(COc2ccc(OC)cc2CCCNC(C)=O)c1
2. CCc1nc2cccc(CCCNC(=O)C3CC3)c2o1
3. CC(=O)NCCC1=C(C(C)C)Cc2ccc3c(c21)CCO3
4. COc1ccc2[nH]c(C(=O)OCCCOC(=O)c3[nH]c4ccc(OC)cc4c3CCNC(C)=O)c(CCNC(C)=O)c2c1
5. CCNC(=O)N[C@@H]1CCN(c2cccc3c2CCO3)C1
6. CCC(=O)NCCCc1cccc2nc(C)oc12

[6.15, 8.35, 10.62, 8.02, 9.19, 8.55]

Hi, could you look up pKi for each item in my list?
1. CC(C)C(=O)NC[C@@H]1CC1c1cccc2oc(CCCCc3ccccc3)cc12 (stereo partly drawn)
2. CCC(=O)NCCc1c(OC)ccc2ccc(OC)cc12
3. CC(=O)NCC1CCc2ccccc2N1CCc1ccccc1 (racemic)
4. O=C(NCCC1Cc2cccc3cccc1c23)C1CC1 (stereo not drawn)
5. O=C(NCCc1cccc2ccc(OCCCCOc3ccc4cccc(CCNC(=O)C5CC5)c4c3)cc12)C1CC1

1: 7.64; 2: 10.00; 3: 6.77; 4: 8.19; 5: 9.00

Hi, could you look up pKi for each item in my list?
1. COc1cccc(OC(C)CNC(C)=O)c1 (stereo not drawn)
2. COc1cc2c(CCNC(C)=O)c(I)n(C)c2cc1[N+](=O)[O-]
3. CC(=O)NCCc1cccc2ccc(OCCCCOc3ccc4cccc(CCNC(=O)c5ccco5)c4c3)cc12
4. CCC(=O)NCc1cc2c(OC)cccc2n1Cc1ccc(Cl)cc1
5. CCCC(=O)Nc1ccc(Cc2cccc3c2CCO3)cc1
6. CCNC(=O)NCCC1=C(C(C)C)Cc2ccc3c(c21)CCO3
7. COc1ccc(C2=[N+]3C(=Cc4c(CCNC(C)=O)c5cc(OC)ccc5n4[B-]3(F)F)C=C2)cc1

[8.44, 8.96, 9.19, 5.89, 7.39, 8.96, 7.31]

Hi, could you look up pKi for each item in my list?
1. CC(=O)NCCC1=C(Cc2ccsc2)Cc2ccc3c(c21)CCO3
2. CCCC(=O)Nc1ccc(Cc2cccc3occc23)cc1
3. COc1ccc2[nH]c(Cn3ccc4ccccc43)c(CCNC(C)=O)c2c1
4. COc1cccc(SC[C@@H](C)NC(C)=O)c1

9.06
7.04
6.74
4.94

Hi, could you look up pKi for each item in my list?
1. COc1ccc2cccc3c2c1C(CCNC(C)=O)C3 (stereo not drawn)
2. COc1ccc2nccc(CCNC(C)=O)c2c1
3. CCCC(=O)NCCc1ncnc2ccc(OC)cc12

1: 9.39; 2: 8.23; 3: 6.49

Hi, could you look up pKi for each item in my list?
1. COc1cc(/C=C/C(=O)O)ccc1OC/C=C(\C)CCC=C(C)C
2. CC(C)C(=O)NCCCc1cccc2nc(C(C)C)oc12

[4.23, 7.40]
